test system: SK-MEL-2 skin cancer cell line; experiment: In vitro cytotoxicity, SRB method; type: cell-based, Human; conditions: read-out: EC50 (concentration inhibiting cell growth in vitro by 50%); SK-MEL-2
What EC50 was measured for each of the following?
Give bare numbers, in nM.

[in] Value wanted: EC50 (SK-MEL-2 skin cancer cell line) of entry CCC(C)C[C@H]1OC(=O)[C@H](C(C)C)N(C)C(=O)[C@@H](CC(C)C)OC(=O)[C@H](C(C)C)N(C)C(=O)[C@@H](C(C)C)OC(=O)[C@H](C(C)C)N(C)C1=O (stereo partly drawn)
[out] 630

List the reported EC50 of each compound below.
1. CC[C@H](C)[C@H]1OC(=O)[C@H](C(C)C)N(C)C(=O)[C@@H](C(C)C)OC(=O)[C@H](C(C)C)N(C)C(=O)[C@@H]([C@@H](C)CC)OC(=O)[C@H](C(C)C)N(C)C1=O
2. CC[C@H](C)[C@H]1OC(=O)[C@H](C(C)C)N(C)C(=O)[C@@H](C(C)C)OC(=O)[C@H](C(C)C)N(C)C(=O)[C@@H](C(C)C)OC(=O)[C@H](C(C)C)N(C)C1=O

[out]
[530, 1770]
